These measurements were taken from PubChem BioAssay (NCI).

Please provide measured growth for the entries that follow.
tested on: 786-0 renal; assay: NCI-60 one-dose screen, 48 h (100 = growth as untreated, 0 = no growth, -100 = all killed); settings: 10 µM unless noted
This is part of a sample that, as a whole, favours compounds with a hit. Of some 83,000 tested, about 20% had one in any assay.
Entry rule: numbers only, all in %.

I am curious: what growth value has been reported for CN1CCN(c2ccc(OC(F)(F)F)c(Nc3ncc4c(n3)-c3c(c(C(N)=O)nn3CCO)CC4)c2)CC1 ?
17

I am curious: what growth value has been reported for C=CC(=O)N(C)[C@H]1C[C@H]2OC(C)(C1OC)n1c3ccccc3c3c4c(c5c6ccccc6n2c5c31)C(=O)NC4 (some centres undefined) ?
-74.2

I am curious: what growth value has been reported for C[C@@H](NC(=O)c1ncnc(N)c1Cl)c1ncc(C(=O)Nc2cc(C(F)(F)F)c(Cl)cn2)s1 ?
110

I am curious: what growth value has been reported for COc1cc2ncnc(Nc3ccc(F)c(Cl)c3)c2cc1NC(=O)/C=C/CN1CCCCC1 ?
-81.7

---

Please provide measured growth for the entries that follow.
test system: SK-MEL-28 melanoma; experiment: NCI-60 one-dose screen, 48 h (100 = growth as untreated, 0 = no growth, -100 = all killed); conditions: 10 µM unless noted
Compounds without any hit were thinned out: in the full panel of roughly 83,000, 20% have a hit. Calls of active or inactive are those of the source. Rule for the calls: active = growth percent below 10; inactive = the rest.

I am curious: what growth value has been reported for CC[C@H](Nc1ncnc2nc[nH]c12)c1nc2cccc(F)c2c(=O)n1-c1ccccc1 ?
69.3% (inactive)

I am curious: what growth value has been reported for CN1CCN(CCCOc2cccc3nc(Nc4ccc(Cl)c(C(F)(F)F)c4)ccc23)CC1 ?
-45.2% (active)

I am curious: what growth value has been reported for CC(C)C1CCC(C)C(C2(C#N)C(N)=NC(N)=C2C#N)C1=O (stereo not given) ?
107% (inactive)

I am curious: what growth value has been reported for Nc1nc(N)c2nc(-c3cccc(O)c3)c(-c3cccc(O)c3)nc2n1 ?
85.2% (inactive)

I am curious: what growth value has been reported for CC(=Nc1ccccc1)C1=C(O)C(Cc2ccc(O)cc2)NC1=O (stereo not given) ?
40% (inactive)

I am curious: what growth value has been reported for O=C(Nc1ccc(C(=O)Nc2ccc(C3=NCCCN3)cc2)cc1)Nc1ccc(C2=NCCCN2)cc1 ?
105% (inactive)

I am curious: what growth value has been reported for COc1cnc2c(c1)C(=O)c1c-2n(CCCN2CCOCC2)c(=O)c2cc(Cl)ccc12 ?
66.4% (inactive)

I am curious: what growth value has been reported for COc1c(C(NC(=O)c2ccccc2)c2sccc2C)cc(Cl)c2cccnc12 (stereo not given) ?
114% (inactive)

I am curious: what growth value has been reported for CCN(CC)CCNC(=O)c1c(C)[nH]c(/C=C2\C(=O)Nc3ccc(F)cc32)c1C ?
-69.1% (active)

I am curious: what growth value has been reported for Cn1cnc2c(F)c(Nc3ccc(Br)cc3Cl)c(C(=O)NOCCO)cc21 ?
-5.61% (active)

I am curious: what growth value has been reported for Cc1nn(-c2nc3ccccc3[nH]2)c2c1C(c1ccc(OCc3ccc(F)cc3)cc1)CC(=O)N2 (stereo not given) ?
63% (inactive)

I am curious: what growth value has been reported for C=CCCCOC1[C@H](OCc2ccccc2)C(OCc2ccccc2)C(OC)O[C@@H]1CNC(=O)c1cccc(I)c1 (stereo not given in full) ?
70.5% (inactive)

I am curious: what growth value has been reported for COc1cccc(Nc2ncnn3ccc(CN4CC[C@@H](N)[C@H](O)C4)c23)c1 ?
89.7% (inactive)

I am curious: what growth value has been reported for CC(N)C(Cc1ccccc1)c1ccc(Cl)cc1 (stereo not given) ?
96.7% (inactive)

I am curious: what growth value has been reported for CN(C)C1CCN(C(=O)c2ccc(NC(=O)Nc3ccc(-c4nc(N5CCOCC5)nc(N5CCOCC5)n4)cc3)cc2)CC1 ?
-27.6% [2.5 µM] (active)

I am curious: what growth value has been reported for Clc1ccc(/C=C/c2cc(N3CCOCC3)c3cc(Cl)c(Cl)cc3n2)cc1 ?
105% (inactive)

I am curious: what growth value has been reported for CC[C@H](CO)Nc1nc(NCc2ccccc2)c2ncn(C(C)C)c2n1 ?
55.5% (inactive)

I am curious: what growth value has been reported for O=C1/C(=C\c2cccc(OCCCCCOc3ccc(Cl)cc3)c2)N=C2SCCCN12 ?
58.7% (inactive)

I am curious: what growth value has been reported for Cc1cc(-c2cc(OC(=O)c3ccccc3)ccc2Cl)cc2nnc(Nc3ccc(OCCN4CCCC4)cc3)nc12 ?
89.2% (inactive)

I am curious: what growth value has been reported for CCCCCCC1(/C=N/NC(N)=O)NC(=O)NC1=O (stereo not given) ?
106% (inactive)
